Reference source: PubChem BioAssay (NCI)

# Tested on: CCRF-CEM leukemia
# assay_procedure: NCI tumour cell line growth inhibition, 48 h
# Lookup of reported GI50 keyed by entry

{"columns": ["compound", "GI50"],
 "data": [
  ["[N-]=[N+]=NCCCn1c2c(c3ccc([N+](=O)[O-])cc3c1=O)C(=O)c1cc(-c3ccccc3)ccc1-2", "> 100000 nM"],
  ["Cn1cc(C2=C(c3cn(CCCN)c4ccccc34)C(=O)NC2=O)c2ccccc21", "2590 nM"],
  ["CCOC(=O)c1c(C)nc2c(c1N)/C(=C/c1ccccn1)C(=O)N2Cc1ccccc1", "1560 nM"],
  ["CC(=O)/C(Br)=C/c1ccc(Br)o1", "2040 nM"],
  ["COc1cc2ncnc(Nc3ccc(Oc4ccnc(C)c4)c(C)c3)c2cc1NC(=O)CC1CCSS1 (stereo not given)", "253 nM"]
]}

----------
# Test system: HS 578T breast
# assay_procedure: NCI tumour cell line growth inhibition, 48 h; in the data active = GI50 below about 0.43 µM; inactive = the rest
Possible outcomes: 1 (active), 0 (inactive)

{"columns": ["given_smiles", "group_label"],
 "data": [
  ["CCC(=O)N1C/C(=C/c2ccc(Br)cc2)C(=O)/C(=C/c2ccc(Br)cc2)C1", 0],
  ["Cc1ccc(Cl)c(NS(=O)(=O)c2ccc(-c3cnc(C4CC4)o3)cc2)c1", 1],
  ["COc1ccc(-c2cc(-c3ccc(Cl)cc3)nc(NCCCCNc3ccnc4cc(Cl)ccc34)n2)cc1", 0],
  ["c1ccc(Oc2ccc(Nc3ncc(-c4ccccc4)o3)cc2)cc1", 0],
  ["O=C(NCCOCCOCCOCCNC(=O)c1cc2c(o1)C(=O)c1ccccc1C2=O)NC12CC3CC(CC(C3)C1)C2", 0],
  ["C#C[C@@]1(O)[C@@H](CO)O[C@@H](n2cc(C(F)(F)F)c3c(N)ncnc32)[C@@H]1O", 0],
  ["COc1ccc(C(=O)c2cc3c(N)c(C(=O)Nc4cccc(Br)c4C)sc3nc2C)cc1", 1],
  ["O=C1C=C(OCC=C(C(F)(F)F)C(F)(F)F)c2ccccc2C1=O", 0],
  ["O=C(Nc1cc(Cl)cc(Cl)c1)c1cccc(NC2=C(Cl)C(=O)N(Cc3ccccc3)C2=O)c1", 0],
  ["O=C1Cc2cc(CCn3cncn3)c(Cl)cc2N1", 0]
]}

----------
# Tested on: HCT-116 colon
# assay_procedure: NCI tumour cell line growth inhibition, 48 h

{"columns": ["compound", "TGI"],
 "data": [
  ["CCc1c(CNC2=NCCN2)c(CC)c(CNC2=NCCN2)c(CC)c1CNC1=NCCN1", "> 100 µM"],
  ["O=[N+]([O-])c1cc(N=Nc2c(O)ccc3cc(S(=O)(=O)O)ccc23)c(O)c([N+](=O)[O-])c1", "> 100 µM"],
  ["O=C(CC1C(=O)Nc2ccccc2S1(=O)=O)Nc1ccc(Cl)cc1 (stereo not given)", "> 100 µM"],
  ["CCOC(=N)CC(=O)Nc1ccccc1", "> 46.4 µM"],
  ["CN(C)CCOc1cc2c(c3ccccc13)-c1ccccc1C2O (stereo not given)", "26.9 µM"]
]}

----------
# Test system: LOX IMVI melanoma
# assay_procedure: NCI tumour cell line growth inhibition, 48 h

{"columns": ["compound", "relational_operator", "TGI [µM]"],
 "data": [
  ["C=CCNC1=C2C[C@@H](C)C[C@H](OC)[C@H](O)[C@@H](C)/C=C(\\C)[C@H](OC(N)=O)[C@@H](OC)/C=C\\C=C(/C)C(=O)NC(=CC1=O)C2=O", "=", 2],
  ["COC1C=COC2(C)Oc3c(C)c(O)c4c(O)c(c(C5SCCS5)c(O)c4c3C2=O)NC(=O)/C(C)=C\\C=CC(C)C(O)C(C)C(O)C(C)C(OC(C)=O)C1C (stereo unspecified)", "=", 4.57],
  ["COc1cc([C@@H]2c3cc4c(cc3[C@@H](OC(=O)c3cccc(N)c3)C3COC(=O)[C@@H]32)OCO4)cc(OC)c1O (stereo partly specified)", "=", 33.8],
  ["O=C(Nc1cc(F)c(F)cc1C(=O)O)c1ccc(-n2ccnc2)nn1", ">", 100],
  ["CC(=O)Nc1cc2cc(NS(=O)(=O)c3ccc(Cl)c(Cl)c3)ccc2oc1=O", "=", 44.3],
  ["O=C1CCC2c3ccccc3NCN12 (stereo unspecified)", ">", 100]
]}
